System: M14 melanoma
Experiment: NCI-60 one-dose screen, 48 h (100 = growth as untreated, 0 = no growth, -100 = all killed)
Settings: 10 µM unless noted
About 83,000 compounds went through this panel and 20% of them were active in at least one assay; those are over-represented in the sample as a whole.
A collection of compounds and their measured growth
Assay Metric: growth (%)

- Compound: "COc1c(O[C@@H]2OC(CO)[C@H](O)[C@H](O)C2O)cc2oc3cc(O)c(CC=C(C)C)c(O)c3c(=O)c2c1CC=C(C)C (some centres undefined)"
  Assay Metric: "growth"
  Measured Number: 86.2
- Compound: "O=c1oc2ccccc2cc1-c1nn(-c2ccccc2)cc1/C=N/Nc1nc(-c2ccccc2)c(N=Nc2ccccc2)s1"
  Assay Metric: "growth"
  Measured Number: 45.4
- Compound: "CC1=C(C(=O)c2ccccc2)C(c2ccc3c(c2)OCO3)NC(=S)N1 (centres undefined)"
  Assay Metric: "growth"
  Measured Number: 34.6
- Compound: "CC(C)(C)n1cc(-c2ccnc(NCCNS(=O)(=O)c3ccc(Br)cc3)c2)c(-c2cccc(O)c2)n1"
  Assay Metric: "growth"
  Measured Number: 21.9
- Compound: "CCc1ccc(Cc2cnc(NC(=O)c3cc(C)oc3C)s2)cc1"
  Assay Metric: "growth"
  Measured Number: 21.4
- Compound: "O=c1c2cccc3c(N4CCOCC4)ccc(c32)c2nc3ccccc3n12"
  Assay Metric: "growth"
  Measured Number: 104
- Compound: "N#Cc1c(-c2ccc(F)cc2)cc(-c2cccc(Cl)c2)[nH]c1=O"
  Assay Metric: "growth"
  Measured Number: 82.3
- Compound: "COc1cc2cc(Oc3ccc(NC(=O)Nc4ccc(Cl)c(Cl)c4)cc3)c(C)nc2cc1OCCN1CCCCC1"
  Assay Metric: "growth"
  Measured Number: -33.4
- Compound: "COC(=O)c1nc(-c2ccccc2)oc1S(=O)(=O)NCC(c1ccc(Cl)cc1)N1CCCCC1 (centres undefined)"
  Assay Metric: "growth"
  Measured Number: 38

* * *

Tested on: NCI-H460 lung
Assay: NCI-60 one-dose screen, 48 h
Conditions: 10 µM unless noted
The panel holds about 83,000 compounds, 20% with a hit somewhere; the sample as a whole holds those more often. Calls of active or inactive are those of the source. The calls were made as follows: active = growth percent below 10; inactive = the rest.
Labels: Y (active), N (inactive)

- Compound: "CC(=O)OCC(=O)O[C@@H]1C[C@]2(C(C)C)O[C@@]1(C)[C@@H]1CC[C@@H](C)[C@H]1[C@@H]2OC(=O)/C=C/c1ccccc1"
  Class: "N"
- Compound: "N/C(=N\\c1nc2ccccc2s1)NC(=O)Nc1ccccc1"
  Class: "N"
- Compound: "O=C1/C(=C/c2cccc(Br)c2)COc2ccc(O)c(O)c21"
  Class: "Y"
- Compound: "O=c1cc(-c2nccc3c2[nH]c2ccccc23)c2cc(Cl)ccc2o1"
  Class: "N"
- Compound: "COc1cccc(/C=C2\\CCc3ccccc3C2=O)c1"
  Class: "N"
- Compound: "C#C[C@]1(O)CC[C@H]2[C@@H]3CC=C4c5sc(-c6cccc(C)c6)nc5CC[C@]4(C)[C@H]3CC[C@@]21C"
  Class: "N"
- Compound: "Cc1csc(Nc2nc(-c3cccc(Cl)c3)nc(C(Cl)(Cl)Cl)n2)n1"
  Class: "Y"
- Compound: "O=C(/C=C/c1ccc(Cl)cc1)c1ccc(-n2cc(CN3CCN(c4cc5c(cc4F)c(=O)c(C(=O)O)cn5C4CC4)CC3)nn2)cc1"
  Class: "N"
- Compound: "O=C(O)/C=C\\C(=O)Nc1ccc2c(c1)Cc1cc(F)ccc1-2"
  Class: "N"
- Compound: "NCCNc1ccc([N+](=O)[O-])cc1"
  Class: "N"
- Compound: "CCCCCN(CCCCC)CC(O)c1c(Cl)ccc2ccccc12 (stereo unspecified)"
  Class: "N"
- Compound: "C#C[C@]1(O)CC[C@H]2[C@@H]3CC=C4c5sc(-c6ccccc6)nc5CC[C@]4(C)[C@H]3CC[C@@]21C"
  Class: "N"
- Compound: "Cn1nc(-c2ccc(Cl)cc2)nc2c(=O)n(C)c(=O)nc1-2"
  Class: "Y"
- Compound: "CC(C)n1cc(C2=C(c3cccc4ccccc34)C(=O)NC2=O)c2cc(Br)ccc21"
  Class: "N"
- Compound: "O=C(O)CCCN1C(=O)CSC1=S"
  Class: "N"
- Compound: "CCOC(=O)c1cc(C(=O)c2cc(OC)cc(OC)c2)n2ncccc12"
  Class: "N"
- Compound: "CCCN1C(=O)N(CCC)C2C1NC(=S)N2/N=C/C=C/c1ccccc1OC (stereo unspecified)"
  Class: "Y"
- Compound: "CNc1nc2ncc(-c3c(C)noc3C)cc2n1Cc1ccccc1"
  Class: "N"
- Compound: "[2H]C([2H])([2H])Oc1c(F)cccc1/C=C/C(=O)/C=C(O)/C=C/c1cccc(F)c1OC([2H])([2H])[2H]"
  Class: "N"
- Compound: "Cc1cc2nc(C(Cl)Cl)nc(-c3ccccc3)n2n1"
  Class: "Y"
- Compound: "C#Cc1cccc(Nc2nc(Cl)nc3cc(NC(=O)CCl)ccc23)c1"
  Class: "Y"

* * *

System: TK-10 renal
Experiment: NCI-60 one-dose screen, 48 h (100 = growth as untreated, 0 = no growth, -100 = all killed)
Conditions: 10 µM unless noted
About 83,000 compounds went through this panel and 20% of them were active in at least one assay; those are over-represented in the sample as a whole.
The threshold is inclusive: growth of exactly 80% counts as True; values below receive False.

- Molecule: "CN1C(=O)N(C)C2C1NN=c1s/c(=C\\c3ccc(F)cc3)c(=O)n12 (stereo unspecified)"
  Tgt: "TK-10 renal"
  Class: "False"
- Molecule: "COc1ccc(-c2cn(Cc3ccc4c(Br)cc(Br)c(O)c4n3)nn2)cc1"
  Tgt: "TK-10 renal"
  Class: "True"
- Molecule: "CNC(=O)c1cc(Oc2ccc3nc(NC(=O)Nc4ccc(F)cc4F)sc3c2)ccn1"
  Tgt: "TK-10 renal"
  Class: "True"
- Molecule: "CCOc1ccc(N2C(=O)CCSC2=S)cc1"
  Tgt: "TK-10 renal"
  Class: "True"

* * *

Test system: BT-549 breast
Assay: NCI-60 one-dose screen, 48 h
Conditions: 10 µM unless noted
Method: Growth inhibition of the BT-549 human tumor cell line is measured as a screen for anti-cancer activity. Cells are grown in 96 well plates and exposed to the test compound for 48 hours. Compounds are tested at a single concentration, which is 10^-5 M for most compounds. The reported endpoint is percent growth (GI% or GIPRCNT), where numbers from 0 - 100% represent growth inhibition, and numbers from -100% - 0 represent cell death. For example, a value of 40 represents 60% growth inhibition. […]
The panel holds about 83,000 compounds, 20% with a hit somewhere; the sample as a whole holds those more often. The source made the active and inactive calls. Rule for the calls: active = growth percent below 10; inactive = the rest.
Outcome codes: YES (active), NO (inactive)

- Compound: "Cc1cc(C(=O)Nc2cc(Nc3ncccc3-c3ncnc4nc[nH]c34)ccc2F)cc(C(C)(C)C#N)c1"
  Class: "NO"
- Compound: "CCc1ccc(Cc2cnc(NC(=O)c3cc(C)oc3C)s2)cc1"
  Class: "NO"
- Compound: "CCN(CC)CCCNc1cc(OC)cc2cccnc12"
  Class: "NO"
- Compound: "CCCn1cnc2c(c1=N)C(c1ccc(Cl)cc1)c1sc3c(F)cccc3c1O2 (stereo unspecified)"
  Class: "NO"
- Compound: "CC(C)=CC(=O)C1C(=O)c2ccccc2C1=O"
  Class: "NO"
- Compound: "CCOC(=O)c1ccc2c(c1)c1c(C)c3cnccc3c(C)c1n2C"
  Class: "YES"

* * *

Tested on: ACHN renal
Test: NCI-60 one-dose screen, 48 h
Details: 10 µM unless noted
The panel holds about 83,000 compounds, 20% with a hit somewhere; the sample as a whole holds those more often. Active and inactive are the calls of the source. Rule for the calls: active = growth percent below 10; inactive = the rest.
Outcomes: active, inactive

- Compound: "O=C(/C=C/C12c3ccccc3C(c3ccccc31)C1C(=O)NC(=O)C12)c1cccs1 (stereo not given)"
  Tgt: "ACHN renal"
  Class: "inactive"
- Compound: "COc1cc(CNC(=O)CCCC/C=C/C(C)C)ccc1OCc1cn(-c2cccc([N+](=O)[O-])c2)nn1"
  Tgt: "ACHN renal"
  Class: "inactive"
- Compound: "O=C1CCC(C(=O)N/N=C/c2ccc([N+](=O)[O-])cc2)N1 (stereo not given)"
  Tgt: "ACHN renal"
  Class: "inactive"
- Compound: "CN1CCN(Cc2ccc(NC(=O)c3cncc(C#Cc4cnc(N)c5ncccc45)c3)cc2Cl)CC1"
  Tgt: "ACHN renal"
  Class: "inactive"
- Compound: "C=CCNc1ccc2c3c(cccc13)C(=O)N(CC=C)C2=O"
  Tgt: "ACHN renal"
  Class: "inactive"
- Compound: "CC/C(=C(/c1ccc(Cl)cc1)c1ccc(OCCN2CCCCCC2)cc1)c1ccccc1"
  Tgt: "ACHN renal"
  Class: "inactive"
- Compound: "O=c1oc2ccccc2cc1-c1nn(-c2ccccc2)cc1/C=N/Nc1nc(-c2ccccc2)c(N=Nc2ccccc2)s1"
  Tgt: "ACHN renal"
  Class: "inactive"
- Compound: "CCCC[N+]1(C)CCN=C1Cc1ccccc1 (stereo not given)"
  Tgt: "ACHN renal"
  Class: "inactive"
- Compound: "O=C(Cn1cc(CSc2nc3ccccc3o2)nn1)Nc1ccc([N+](=O)[O-])cc1"
  Tgt: "ACHN renal"
  Class: "inactive"
- Compound: "C=C(C)[C@@H]1CC[C@]2(C#N)CC[C@]3(C)[C@H](CC[C@@H]4[C@@]5(C)CCCNC(C)(C)[C@@H]5CC[C@]43C)[C@@H]12"
  Tgt: "ACHN renal"
  Class: "inactive"
- Compound: "COc1cc(C(=O)n2nc(NCCCc3ccccc3)c3cc(N)ccc32)cc(OC)c1OC"
  Tgt: "ACHN renal"
  Class: "inactive"
- Compound: "O=C(N/N=C/c1ccccc1Cl)c1ccccc1Nc1ccnc(C(F)(F)F)c1"
  Tgt: "ACHN renal"
  Class: "active"
- Compound: "COc1cc(C(=O)/C=C/c2c(-c3cccs3)nc3sc(C)cn23)cc(OC)c1OC"
  Tgt: "ACHN renal"
  Class: "inactive"
- Compound: "COc1cc(/C=C/c2cc(/C=C/c3ccc(O)c(OC)c3)n(C(=O)Nc3ccc(C)cc3C)n2)ccc1O"
  Tgt: "ACHN renal"
  Class: "active"
- Compound: "CCOC(=O)CCC(=O)P(=O)(O)O"
  Tgt: "ACHN renal"
  Class: "inactive"
- Compound: "CN(C)C(=S)NN=C(c1ccccn1)c1ccccn1"
  Tgt: "ACHN renal"
  Class: "inactive"
- Compound: "Cc1ccccc1NC(=O)c1sc2nc3c(cc2c1N)CCCC3"
  Tgt: "ACHN renal"
  Class: "inactive"
- Compound: "O=C(CSc1nc(-c2ccccc2)cn1-c1ccc(Cl)cc1)c1ccc([N+](=O)[O-])cc1"
  Tgt: "ACHN renal"
  Class: "inactive"
- Compound: "Cc1ccc(OCCOCCOCCOCCOc2ccc(C)n(O)c2=S)c(=S)n1O"
  Tgt: "ACHN renal"
  Class: "inactive"
- Compound: "O=C1OCC2=C1C(c1cccc(F)c1)c1cc3c(cc1N2CCO)CCC3 (stereo not given)"
  Tgt: "ACHN renal"
  Class: "inactive"

Source: PubChem BioAssay (NCI)
